Would you kindly list pIC50 for each of these molecules?
Test system: K562
EXPERIMENT_DESCRIPTION: cells
PROTOCOL_CONDITIONS: Homo sapiens, K562, 72 h
Description: Antiproliferative activity against human K562 cells assessed as cell death measured after 72 hrs by resazurin dye based assay
Give bare numbers, as −log10 of the molar value.

NC1CCc2c(c(-c3c[nH]nc3C(F)(F)F)nc3ccc4[nH]ncc4c23)C1 (centres undefined) = 4.18
Cc1n[nH]c2cc(F)c3nc(-c4c[nH]nc4C(F)(F)F)c4c(c3c12)CCCC4 = 5.04

Would you mind giving pIC50 for every molecule in the list below?
1. FC(F)(F)c1n[nH]cc1-c1nc2c(C(F)(F)F)cc3[nH]ncc3c2c2c1CCCC2
2. FC(F)(F)c1n[nH]cc1-c1nc2c(N3CCCCC3)cc3[nH]ncc3c2c2c1CCCC2
3. Fc1ccc(-c2cc(-c3c[nH]nc3C(F)(F)F)nc3ccc4[nH]ncc4c23)cc1Cl
4. Nc1ccc(-c2nc3ccc4[nH]ncc4c3c3c2CCCC3)cc1C(F)(F)F
5. Cn1ncc2c3c4c(c(-c5c[nH]nc5C(F)(F)F)nc3ccc21)CCCC4

A.
[4.95, 4.69, 4.18, 4.66, 4.35]

Q. Look at this molecule and give its reported pIC50. `FC(F)(F)c1n[nH]cc1-c1nc2ccc3[nH]ncc3c2c2c1CCCCC2`
A. 4.60

---

TARGET: CDK2/Cyclin A1 (Homo sapiens)
QUANTITY_NAME: pIC50
One number for each entry, as −log10 of the molar value.

// known answers, use as guide
FC(F)(F)c1n[nH]cc1-c1nc2ccc3sncc3c2c2c1CCCC2 = 5.29
c1[nH]nnc1-c1nc2ccc3[nH]ncc3c2c2c1CCCC2 = 6.74
[O-][S+]1CCc2c(c(-c3c[nH]nc3C(F)(F)F)nc3ccc4[nH]ncc4c23)C1 (stereo not drawn) = 7.40

Would you mind giving pIC50 for every compound in the list below?
1. Cc1n[nH]c2cc(F)c3nc(-c4c[nH]nc4C(F)(F)F)c4c(c3c12)CCCC4
2. O=S1(=O)CCc2c(c(-c3c[nH]nc3C(F)(F)F)nc3ccc4[nH]ncc4c23)C1
3. OC1CCc2c(c(-c3c[nH]nc3C(F)(F)F)nc3ccc4[nH]ncc4c23)C1 (stereo not drawn)
4. CCOC(=O)C1CCc2c(c(-c3c[nH]nc3C(F)(F)F)nc3ccc4[nH]ncc4c23)C1 (stereo not drawn)
5. FC(F)(F)c1n[nH]cc1-c1nc2ccc3[nH]ncc3c2c2c1COCC2
6. CC(C)c1nn(C)cc1-c1nc2ccc3[nH]ncc3c2c2c1CCCC2
7. FC(F)(F)c1n[nH]cc1-c1nc2c(Br)cc3[nH]ncc3c2c2c1CCCC2
8. FC(F)(F)c1n[nH]cc1-c1cc(C2CC2)c2c(ccc3[nH]ncc32)n1

A.
1: 6.80; 2: 6.64; 3: 7.70; 4: 6.95; 5: 6.72; 6: 5.84; 7: 4.97; 8: 7.06

Would you mind giving pIC50 for every compound in the list below?
1. FC(F)(F)c1n[nH]cc1-c1nc2ccc3[nH]ncc3c2c2c1CCCC2
2. FC(F)(F)c1n[nH]cc1-c1nc2ccc3[nH]nc(Cl)c3c2c2c1CCCC2

A.
1. 7.41
2. 5.63

---

Reported IC50 values, Receptor-type tyrosine-protein kinase FLT3 (Homo sapiens, UniProt P36888, ITD).
Numbers only, in nM.

// known answers, use as guide
OCc1n[nH]c2ccc3nc(-c4c[nH]nc4C(F)(F)F)c4c(c3c12)CCCC4 = 3
OC1CCc2c(c(-c3c[nH]nc3C(F)(F)F)nc3ccc4[nH]ncc4c23)C1 (stereo not given) = 16
O=C(O)C1CCc2c(c(-c3c[nH]nc3C(F)(F)F)nc3ccc4[nH]ncc4c23)C1 (stereo not given) = 563
FC(F)(F)c1n[nH]cc1-c1nc2ccc3[nH]ncc3c2c2c1COCC2 = 109

// switching to the query molecule
Q. Look at this molecule and give its reported IC50. CCOC(=O)C1CCc2c(c(-c3c[nH]nc3C(F)(F)F)nc3ccc4[nH]ncc4c23)C1 (stereo not given)
A. 118
